Data origin, for the record: PubChem BioAssay AID1963448

Listing of recorded viability, T/C by entry.
- System: 616215-338-R-J1-PDC complex spheroid growth, % test/control
- measurementNotes: Anticancer human tumor 616215-338-R-J1-PDC patient-derived colon adenocarcinoma cell line growth inhibition [Asc]
- setupConditions: second compound 0.0316 µM; first compound 10 µM; stronger effect = lower value

molecule	targetUnderTest	outputUnit	viability, T/C
C=C(F)C(=O)N1CCN(c2nc(OCC3CCCN3C)nc3c2CCN(c2cccc4cccc(Cl)c24)C3)CC1CC#N (centres undefined) + CNC(C)C(=O)NC1CN(S(=O)(=O)c2cccc(S(=O)(=O)N3CCC4CCC(C(=O)NC(c5ccccc5)c5ccccc5)N4C(=O)C(NC(=O)C(C)NC)C3)c2)CCC2CCC(C(=O)NC(c3ccccc3)c3ccccc3)N2C1=O	616215-338-R-J1-PDC complex spheroid growth, % test/control	%	0.16
C=CC(=O)N1CCN(c2nc(=O)n(-c3c(C)ccnc3C(C)C)c3nc(-c4c(O)cccc4F)c(F)cc23)C(C)C1 (centres undefined) + CNC(C)C(=O)NC1CN(S(=O)(=O)c2cccc(S(=O)(=O)N3CCC4CCC(C(=O)NC(c5ccccc5)c5ccccc5)N4C(=O)C(NC(=O)C(C)NC)C3)c2)CCC2CCC(C(=O)NC(c3ccccc3)c3ccccc3)N2C1=O	616215-338-R-J1-PDC complex spheroid growth, % test/control	%	29.2
C#Cc1c(F)ccc2cc(O)cc(-c3ncc4c(N5CC6CCC(C5)N6)nc(OCC56CCCN5CC(F)C6)nc4c3F)c12 (centres undefined) + CNC(C)C(=O)NC1CN(S(=O)(=O)c2cccc(S(=O)(=O)N3CCC4CCC(C(=O)NC(c5ccccc5)c5ccccc5)N4C(=O)C(NC(=O)C(C)NC)C3)c2)CCC2CCC(C(=O)NC(c3ccccc3)c3ccccc3)N2C1=O	616215-338-R-J1-PDC complex spheroid growth, % test/control	%	9.6
O=C(c1cc(Cc2n[nH]c(=O)c3ccccc23)ccc1F)N1CCN(C(=O)C2CC2)CC1 + CNC(C)C(=O)NC1CN(S(=O)(=O)c2cccc(S(=O)(=O)N3CCC4CCC(C(=O)NC(c5ccccc5)c5ccccc5)N4C(=O)C(NC(=O)C(C)NC)C3)c2)CCC2CCC(C(=O)NC(c3ccccc3)c3ccccc3)N2C1=O	616215-338-R-J1-PDC complex spheroid growth, % test/control	%	78.1

====

- Tested on: 616215-338-R-J1-PDC complex spheroid growth, % test/control
- measurementNotes: Anticancer human tumor 616215-338-R-J1-PDC cell line growth inhibition [Asc]; active = viability on the fitted dose curve at most 10% of control; inactive = the rest;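 further: spheroids exposed to agents for seven days before readout; 100% = DMSO vehicle control viability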
- setupConditions: second compound 0.0949 µM; first compound 10 µM
Possible outcomes: active, inactive

compound	label
O=C(c1cc(Cc2n[nH]c(=O)c3ccccc23)ccc1F)N1CCN(C(=O)C2CC2)CC1 + CCN1C(C(=O)NC23CCC(C(=O)O)(CC2)CC3)C(c2cccc(Cl)c2F)C2(C(=O)Nc3cc(Cl)ccc32)C12CCCCC2	inactive
C=C(F)C(=O)N1CCN(c2nc(OCC3CCCN3C)nc3c2CCN(c2cccc4cccc(Cl)c24)C3)CC1CC#N (centres undefined) + CCN1C(C(=O)NC23CCC(C(=O)O)(CC2)CC3)C(c2cccc(Cl)c2F)C2(C(=O)Nc3cc(Cl)ccc32)C12CCCCC2	active
C#Cc1c(F)ccc2cc(O)cc(-c3ncc4c(N5CC6CCC(C5)N6)nc(OCC56CCCN5CC(F)C6)nc4c3F)c12 (centres undefined) + CCN1C(C(=O)NC23CCC(C(=O)O)(CC2)CC3)C(c2cccc(Cl)c2F)C2(C(=O)Nc3cc(Cl)ccc32)C12CCCCC2	inactive
C=CC(=O)N1CCN(c2nc(=O)n(-c3c(C)ccnc3C(C)C)c3nc(-c4c(O)cccc4F)c(F)cc23)C(C)C1 (centres undefined) + CCN1C(C(=O)NC23CCC(C(=O)O)(CC2)CC3)C(c2cccc(Cl)c2F)C2(C(=O)Nc3cc(Cl)ccc32)C12CCCCC2	inactive
